Hey, just so you know, these numbers are from paper PMC10812921.

Molecular target: POU2 (OCT2 POU domain);BOB1 (OBF1, OCA-B) (human;human, UniProt P09086;Q16633 175-386;1-256, |)
Sequence 1: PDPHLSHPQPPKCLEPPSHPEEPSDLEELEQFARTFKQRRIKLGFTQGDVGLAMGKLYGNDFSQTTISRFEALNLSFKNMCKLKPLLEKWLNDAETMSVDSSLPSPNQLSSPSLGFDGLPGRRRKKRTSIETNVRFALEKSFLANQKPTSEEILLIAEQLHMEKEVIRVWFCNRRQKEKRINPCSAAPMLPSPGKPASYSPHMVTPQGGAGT
Sequence 2: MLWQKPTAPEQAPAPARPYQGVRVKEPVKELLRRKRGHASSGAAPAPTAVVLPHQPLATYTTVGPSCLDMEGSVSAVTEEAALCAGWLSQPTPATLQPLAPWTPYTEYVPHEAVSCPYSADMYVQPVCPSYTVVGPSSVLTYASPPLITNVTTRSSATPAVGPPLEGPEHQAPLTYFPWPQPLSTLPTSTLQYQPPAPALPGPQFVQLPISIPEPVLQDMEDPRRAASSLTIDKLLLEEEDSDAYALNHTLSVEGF
Assay: EMSA-SELEX-seq; with BOB1 (ternary complex band); 20 mM Tris-HCl pH 7.6, 140 mM NaCl, 10% glycerol, 0.5 mM EDTA, 0.05% Triton X-100, 0.1 mg/mL BSA, 0.1 mg/mL poly(dI-dC), 5 mM DTT, room temperature, 20 min; high values mean tight binding
Conditions: protein: recombinant;recombinant; copies: 1;1; dsDNA, one strand shown
Result Type: binding signal

ACATCAAG :: 0.033 % of ANNNNAAN 8-mers

Enquiry: binding signal lookup needed for AGAAAAAC , thanks.
Return: 0.0396 % of ANNNNAAN 8-mers

Enquiry: Value lookup for binding signal; key = AACAGAAA
Return: 0.033 % of ANNNNAAN 8-mers

Enquiry: I'd like to know its binding signal. The sequence in question is ATGATAAC
Return: 0.0479 % of ANNNNAAN 8-mers

Enquiry: For the sequence AAACCAAC , what binding signal is on record?
Return: 0.0215 % of ANNNNAAN 8-mers

Enquiry: What value of measured binding signal is listed for AATCCAAT ?
Return: 0.0504 % of ANNNNAAN 8-mers

Enquiry: Query: binding signal; subject: ACTGGAAC
Return: 0.0206 % of ANNNNAAN 8-mers

Enquiry: // query binding signal value for entry AACTAAAT
Return: 0.0594 % of ANNNNAAN 8-mers

Enquiry: Look up binding signal: AAGGAAAA
Return: 0.0999 % of ANNNNAAN 8-mers

Enquiry: Any idea what its binding signal is? The sequence is ATAAAAAA
Return: 0.0801 % of ANNNNAAN 8-mers

Enquiry: Dear colleague, I am looking for the recorded binding signal of the following sequence: ACCTTAAG
Return: 0.0281 % of ANNNNAAN 8-mers

Enquiry: Field request: binding signal | item: ATATAAAG
Return: 0.0603 % of ANNNNAAN 8-mers

Enquiry: I am curious: what binding signal value has been reported for AAATTAAT ?
Return: 0.287 % of ANNNNAAN 8-mers

###

molecular target: POU1 (OCT1 POU domain);BOB1 (OBF1, OCA-B) (human;human, UniProt P14859;Q16633 260-458;1-256, |); assay: EMSA-SELEX-seq; with BOB1 (ternary complex band); 20 mM Tris-HCl pH 7.6, 140 mM NaCl, 10% glycerol, 0.5 mM EDTA, 0.05% Triton X-100, 0.1 mg/mL BSA, 0.1 mg/mL poly(dI-dC), 5 mM DTT, room temperature, 20 min; high values mean tight binding; details: protein: recombinant;recombinant; copies: 1;1; dsDNA, one strand shown
Sequence (P14859 260-458, one chain of several): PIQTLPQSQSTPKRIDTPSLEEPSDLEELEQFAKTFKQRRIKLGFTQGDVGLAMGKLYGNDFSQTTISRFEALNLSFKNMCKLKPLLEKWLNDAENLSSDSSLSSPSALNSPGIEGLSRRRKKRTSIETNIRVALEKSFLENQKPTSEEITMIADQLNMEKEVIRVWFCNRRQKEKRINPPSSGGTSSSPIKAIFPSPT
Measured binding signal, listed per entry.

ACCCTAAA :: 0.0137 % of ANNNNAAN 8-mers
AAAGAAAC :: 0.0433 % of ANNNNAAN 8-mers
ATCTGAAG :: 0.0359 % of ANNNNAAN 8-mers

Enquiry: Given ACCAGAAC , state its recorded binding signal.
Return: 0.0129 % of ANNNNAAN 8-mers

Enquiry: What binding signal value was documented for this sequence, ATATGAAC ?
Return: 0.03 % of ANNNNAAN 8-mers

Enquiry: Would you mind telling me what binding signal value was observed for AAAGGAAT ?
Return: 0.0901 % of ANNNNAAN 8-mers

Enquiry: Query (sequence): AAGCCAAA ; field requested: binding signal
Return: 0.0464 % of ANNNNAAN 8-mers

Enquiry: What binding signal value was documented for this sequence, ATAAAAAC ?
Return: 0.0562 % of ANNNNAAN 8-mers

Enquiry: State the recorded binding signal for this entry: ACCCCAAA
Return: 0.0109 % of ANNNNAAN 8-mers

Enquiry: Report binding signal for AGTCAAAG please.
Return: 0.187 % of ANNNNAAN 8-mers

Enquiry: Look up binding signal for this sequence: AACACAAC
Return: 0.014 % of ANNNNAAN 8-mers

Enquiry: What value of measured binding signal is listed for AATTTAAC ?
Return: 0.117 % of ANNNNAAN 8-mers

Enquiry: Reported binding signal, sequence ACCCGAAA : ____
Return: 0.0168 % of ANNNNAAN 8-mers

###

biological target: POU1 (OCT1 POU domain);BOB1 (OBF1, OCA-B) (human;human, UniProt P14859;Q16633 260-458;1-256, |); test: EMSA-SELEX-seq; with BOB1 (ternary complex band); 20 mM Tris-HCl pH 7.6, 140 mM NaCl, 10% glycerol, 0.5 mM EDTA, 0.05% Triton X-100, 0.1 mg/mL BSA, 0.1 mg/mL poly(dI-dC), 5 mM DTT, room temperature, 20 min; high values mean tight binding; conditions: protein: recombinant;recombinant; copies: 1;1; dsDNA, one strand shown
Result Type: binding signal

Enquiry: What does the record list as binding signal for AACGAAAC ?
Return: 0.0238 % of ANNNNAAN 8-mers

Enquiry: Consider the sequence shown here: AGCTCAAT What is its recorded binding signal?
Return: 0.0261 % of ANNNNAAN 8-mers

###

target: POU1 (OCT1 POU domain) (human, UniProt P14859 260-458); experiment: EMSA-SELEX-seq; no BOB1; 20 mM Tris-HCl pH 7.6, 140 mM NaCl, 10% glycerol, 0.5 mM EDTA, 0.05% Triton X-100, 0.1 mg/mL BSA, 0.1 mg/mL poly(dI-dC), 5 mM DTT, room temperature, 20 min; high values mean tight binding; conditions: protein: recombinant; dsDNA, one strand shown
Sequence (P14859 260-458): as the sequence (P14859 260-458, one chain of several) above
Entries and their binding signal values follow.

A selection of reference data follows.
AATTAAAT :: 0.333 % of ANNNNAAN 8-mers
AACAGAAT :: 0.0645 % of ANNNNAAN 8-mers
ACGGTAAA :: 0.0389 % of ANNNNAAN 8-mers
ATGCTAAC :: 0.0671 % of ANNNNAAN 8-mers

Enquiry: Requested field: binding signal. Item: AAGGTAAG
Return: 0.0416 % of ANNNNAAN 8-mers

Enquiry: I am curious: what binding signal value has been reported for ATCTCAAG ?
Return: 0.0313 % of ANNNNAAN 8-mers

Enquiry: // binding signal lookup, key: AACACAAC
Return: 0.016 % of ANNNNAAN 8-mers

###

Biological target: POU2 (OCT2 POU domain);BOB1 (OBF1, OCA-B) (human;human, UniProt P09086;Q16633 175-386;1-256, |)
Sequence 1: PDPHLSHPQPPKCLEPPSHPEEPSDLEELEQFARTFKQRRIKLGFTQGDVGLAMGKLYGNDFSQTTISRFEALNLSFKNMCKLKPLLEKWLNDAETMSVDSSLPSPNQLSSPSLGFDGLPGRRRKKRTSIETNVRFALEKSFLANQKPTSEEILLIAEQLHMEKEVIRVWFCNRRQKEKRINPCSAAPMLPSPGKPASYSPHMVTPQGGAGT
Sequence 2: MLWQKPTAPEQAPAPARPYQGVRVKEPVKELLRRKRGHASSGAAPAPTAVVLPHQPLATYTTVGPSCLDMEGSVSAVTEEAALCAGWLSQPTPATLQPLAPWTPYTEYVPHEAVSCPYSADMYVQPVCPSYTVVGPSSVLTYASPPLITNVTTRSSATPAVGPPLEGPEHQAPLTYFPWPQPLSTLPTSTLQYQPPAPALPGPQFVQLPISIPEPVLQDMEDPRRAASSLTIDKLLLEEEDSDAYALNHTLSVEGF
Assay: EMSA-SELEX-seq; with BOB1 (ternary complex band); 20 mM Tris-HCl pH 7.6, 140 mM NaCl, 10% glycerol, 0.5 mM EDTA, 0.05% Triton X-100, 0.1 mg/mL BSA, 0.1 mg/mL poly(dI-dC), 5 mM DTT, room temperature, 20 min; high values mean tight binding
Conditions: protein: recombinant;recombinant; copies: 1;1; dsDNA, one strand shown
Result Type: binding signal

Reference set (5 entries):
ATATTAAG :: 0.117 % of ANNNNAAN 8-mers
AGTCTAAT :: 0.0958 % of ANNNNAAN 8-mers
ACCTGAAG :: 0.0206 % of ANNNNAAN 8-mers
AAAGCAAC :: 0.0272 % of ANNNNAAN 8-mers
ATTTGAAG :: 0.0545 % of ANNNNAAN 8-mers

Could you now consider this next sequence?
Enquiry: Which value of binding signal has been reported for AAGTAAAC in the records?
Return: 0.0487 % of ANNNNAAN 8-mers
